- target-or-test-system: human CD33 T363A (human, UniProt P20138 18-364)
- Sequence (P20138 18-364 T363A limits assumed): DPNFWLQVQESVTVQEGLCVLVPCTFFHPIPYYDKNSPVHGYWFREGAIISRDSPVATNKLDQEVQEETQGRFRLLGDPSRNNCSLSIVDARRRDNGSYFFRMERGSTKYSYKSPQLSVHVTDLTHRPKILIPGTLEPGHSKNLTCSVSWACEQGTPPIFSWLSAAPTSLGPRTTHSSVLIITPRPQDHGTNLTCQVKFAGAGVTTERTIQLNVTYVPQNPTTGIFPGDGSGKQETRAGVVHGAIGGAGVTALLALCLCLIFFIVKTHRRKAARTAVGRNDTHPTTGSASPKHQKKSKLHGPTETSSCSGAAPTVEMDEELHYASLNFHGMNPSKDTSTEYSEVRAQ
- assay-notes: flow cytometry, alanine scan
measured-metric: Mean % WT Binding

| binder | result |
| --- | --- |
| Refmab #2 (antibody, V domains shown, The alanine scan used IgG or Fab) VH: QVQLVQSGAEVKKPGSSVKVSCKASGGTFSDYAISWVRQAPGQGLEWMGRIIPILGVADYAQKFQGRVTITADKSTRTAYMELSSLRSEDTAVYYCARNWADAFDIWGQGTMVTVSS VL: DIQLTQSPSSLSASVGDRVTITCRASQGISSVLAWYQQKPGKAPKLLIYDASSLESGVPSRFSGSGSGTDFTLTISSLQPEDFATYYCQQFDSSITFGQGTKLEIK | 108 % of WT |
| Refmab #1 (antibody, V domains shown, The alanine scan used IgG or Fab; also called hP67.6) VH: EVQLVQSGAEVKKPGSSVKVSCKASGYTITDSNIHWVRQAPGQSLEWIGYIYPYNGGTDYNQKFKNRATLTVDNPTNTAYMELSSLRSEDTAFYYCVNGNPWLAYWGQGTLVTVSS VL: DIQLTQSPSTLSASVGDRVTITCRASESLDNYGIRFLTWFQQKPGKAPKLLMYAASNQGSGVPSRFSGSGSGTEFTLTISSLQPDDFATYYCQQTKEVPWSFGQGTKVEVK | 91.4 % of WT |
| Refmab #3 (antibody, V domains shown, The alanine scan used IgG or Fab) VH: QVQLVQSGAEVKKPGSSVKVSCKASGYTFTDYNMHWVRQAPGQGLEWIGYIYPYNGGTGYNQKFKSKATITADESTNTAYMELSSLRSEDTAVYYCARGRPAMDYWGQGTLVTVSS VL: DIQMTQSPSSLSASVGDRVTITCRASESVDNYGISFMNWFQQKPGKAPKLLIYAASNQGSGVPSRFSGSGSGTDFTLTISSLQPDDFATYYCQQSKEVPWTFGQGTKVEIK | 91.5 % of WT |
| Refmab #4 (antibody, V domains shown, The alanine scan used IgG or Fab) VH: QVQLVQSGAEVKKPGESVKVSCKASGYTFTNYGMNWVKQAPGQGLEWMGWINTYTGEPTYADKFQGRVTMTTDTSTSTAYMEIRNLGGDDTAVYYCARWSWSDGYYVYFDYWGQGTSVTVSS VL: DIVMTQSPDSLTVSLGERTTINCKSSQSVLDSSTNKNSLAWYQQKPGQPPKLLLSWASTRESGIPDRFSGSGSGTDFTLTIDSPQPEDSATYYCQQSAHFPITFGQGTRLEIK | 124 % of WT |
